Tested on: MCH58 fibroblasts
Assay: Glucose versus galactose cell growth screen (metabolic state-dependent lethality)
Conditions: approximately 10 μM compound, 72 hours; log10 fold change of normalized cell number in glucose versus galactose
Could you please report measured Sglu/gal (log10 fold change) Score for the items listed next?

Some solved entries appear below for comparison.
OC(c1cc(C(F)(F)F)nc2c(C(F)(F)F)cccc12)C1CCCCN1 (stereo not shown): 0.20
CC[C@@]1(O)C(=O)OCc2c1cc1n(c2=O)Cc2cc3ccccc3nc2-1: −0.26

Each molecule below has a reported value. Please supply its Sglu/gal (log10 fold change) Score.
1. CC(C)=CCCC1(C)C=Cc2c(O)c3c(c(CC=C(C)C)c2O1)OC12C(=CC4CC1C(C)(C)OC2(C/C=C(/C)C(=O)O)C4O)C3=O (stereo not shown) [dihydrogambogic acid]
2. COc1cc(C(=O)O)c2c(c1C)OC(=O)c1c(C)cc(O)c(C=O)c1O2

Given back:
["−0.32", 0.35]

// provenance: patent US9399032B2
